Every entry's value here was drawn from patent US7495027B2.

Hi there, I'd appreciate the recorded MIC for every entry that follows.
Test system: enterococci
assay.text: Minimum inhibitory concentration, microdilution broth method, enterococci
Format: cell-based
measurement.setup: Enterococcus faecalis, E. faecalis GC 2242; Mueller-Hinton broth, 18-22 hours at 35° C.; read-out: MIC E. faecalis GC 2242
Numeric only. Scale: µg/mL

Prompt: GET /values?readout=MIC&system=enterococci&item= O=C1O/C(=C\c2ccc3ccccc3c2)C(O)=C1c1ccc(Cl)cc1
Response: 4

Prompt: Now consider O=C1O/C(=C\c2ccc(Cl)cc2)C(O)=C1c1cccc2ccccc12 .
Response: 64

Prompt: Now consider O=C1O/C(=C\c2cccc3ccccc23)C(O)=C1c1ccc2ccccc2c1 .
Response: 8

Prompt: Now consider O=C1O/C(=C\c2ccc(-c3ccccc3)cc2)C(O)=C1c1ccc2ccccc2c1 .
Response: 4

Prompt: Now consider O=C1O/C(=C\c2cc(F)cc(C(F)(F)F)c2)C(O)=C1c1cccc(-c2ccccc2)c1 .
Response: 1

Prompt: Now consider COc1cc(/C=C2\OC(=O)C(c3cc(Cl)cc(Cl)c3)=C2O)ccc1-c1ccccc1C .
Response: 2

Prompt: Now consider O=C1O/C(=C\c2ccccc2-c2ccc(Cl)c(Cl)c2)C(O)=C1c1ccc(Cl)c(Cl)c1 .
Response: 0.5

Prompt: Now consider Cc1ccccc1-c1ccc(/C=C2\OC(=O)C(c3cccc(Cl)c3)=C2O)cc1C .
Response: 2

----------
Hi there, I'd appreciate the recorded melting point for every entry that follows.

Prompt: Look up melting point for this molecule: Cc1ccc(/C=C2\OC(=O)C(c3ccc(-c4ccccc4)cc3)=C2O)s1 [Example 104]
Response: 235 to 240 °C

Prompt: Now consider O=C1O/C(=C\c2ccc(Cl)cc2)C(O)=C1c1ccc(-c2ccccc2)c(F)c1 [Example 138] .
Response: 255 to 258 °C

Prompt: Now consider O=C1O/C(=C\c2ccc(-c3ccccc3)cc2)C(O)=C1c1ccc(Cl)cc1 [Example 53] .
Response: 282 to 285 °C

Prompt: Now consider O=C1O/C(=C\c2ccc(-c3ccccc3)cc2)C(O)=C1c1cccc(C(F)(F)F)c1 [Example 10] .
Response: 240 to 241.5 °C

Prompt: Now consider O=C1O/C(=C\c2ccc(-c3ccccc3)cc2)C(O)=C1c1ccc(Cl)c(Cl)c1 [Example 66] .
Response: 265 to 269 °C

Prompt: Now consider O=C1O/C(=C\c2ccc(-c3ccccc3)cc2)C(O)=C1c1ccc(Cl)cc1Cl [Example 65] .
Response: 252 to 256 °C

Prompt: Now consider O=C1O/C(=C\c2ccccc2C(F)(F)F)C(O)=C1c1ccc(-c2ccccc2)c(F)c1 [Example 107] .
Response: 224 to 228 °C

Prompt: Now consider O=C1O/C(=C\c2cccc3ccccc23)C(O)=C1c1cc(Cl)cc(Cl)c1 [Example 70] .
Response: 244 to 245 °C

----------
Test system: Trichostrongylus columbriformis
assay.text: In vivo efficacy against T. colubriformis in infected gerbils
measurement.setup: gerbils infected with T. colubriformis; single oral dose of 50 mg/kg by gavage; worm counts four days post-treatment; % mortality as compared to negative control
Hi there, I'd appreciate the recorded Mortality for every entry that follows.
Value and unit, in that order.

Prompt: Look up Mortality for this compound: O=C1O/C(=C\c2ccc(-c3ccc(Cl)c(Cl)c3)cc2)C(O)=C1c1ccc(Cl)c(Cl)c1
Response: 22.00%

Prompt: Now consider COc1ccccc1-c1ccc(C=C2OC(=O)C(c3cccc(Cl)c3)=C2O)cc1C .
Response: 0.00%

Prompt: Now consider N#Cc1ccc(C2=C(O)C(=Cc3ccc(Cl)s3)OC2=O)cc1 (mixture of isomers) .
Response: 20.60%

Prompt: Now consider N#Cc1ccc(C2=C(O)C(=Cc3ccc(OC(F)(F)F)cc3)OC2=O)cc1 (mixture of isomers) .
Response: 90.00%

Prompt: Now consider COc1ccc(/C=C2\OC(=O)C(c3cccc(C(F)(F)F)c3)=C2O)cc1 .
Response: 3.10%

Prompt: Now consider O=C1OC(=Cc2ccc(-c3ccc(C(F)(F)F)cc3)cc2)C(O)=C1c1ccc(Cl)cc1 (mixture of isomers) .
Response: 0.00%

Prompt: Now consider O=C1O/C(=C\c2cccc3ccccc23)C(O)=C1c1cc(Cl)cc(Cl)c1 .
Response: 0.00%
